Would you mind telling me the reported Activity of each entry?
- Test system: SK-N-MC
- METHOD NOTES: Effect on iron efflux in human SK-N-MC cells assessed as cellular iron release
- Format: functional
- Design: concentration or dose not given beside the values
I'd appreciate it if you wrote the number followed by its unit.

Parameter requested: Activity. Apply to each item below.
1. Cc1ncc(CO)c(/C=N/NC(=O)c2ccncc2)c1O [PYRIDOXAL ISONICOTINOYL HYDRAZONE]
2. O=C(N/N=C/c1c(O)ccc2ccccc12)c1ccncc1
3. Oc1ccccc1/C=N/NC(=S)c1ccccc1 [SALICYLALDEHYDE THIOBENZOYL HYDRAZONE]
4. CC(=O)N(O)CCCCCNC(=O)CCC(=O)N(O)CCCCCNC(=O)CCC(=O)N(O)CCCCCN
5. CN(C)C(=S)NN=C(c1ccccn1)c1ccccn1
6. S=C(NN=C(c1ccccn1)c1ccccn1)c1ccccc1

1. 44%
2. 44%
3. 37%
4. 17%
5. 44%
6. 37%

For the molecule shown here, Oc1ccc2ccccc2c1/C=N/NC(=S)c1ccccc1 , give the reported Activity.
37%

====

- Tested on: MRC5
- METHOD NOTES: Antiproliferative activity against human MRC5 cells by MTT assay
- Type: cell-based
So I've got a bunch of molecules here, and I need their IC50 values.
Answers are plain numbers, in µM.

Before answering, review these 3 worked examples.
{"columns": ["MOLECULE", "IC50 / µM"],
 "data": [
  ["Oc1ccc2ccccc2c1/C=N/NC(=S)c1ccccc1", 3.89],
  ["Oc1ccccc1/C=N/NC(=S)c1ccccc1 [SALICYLALDEHYDE THIOBENZOYL HYDRAZONE]", 57],
  ["S=C(NN=C(c1ccccn1)c1ccccn1)c1ccccc1", 0.75]
]}

Let us move to another entry and its IC50.
Name the recorded IC50 for S=C(N/N=C(/c1ccccc1)c1ccccn1)c1ccccc1 .
0.53
